Listed next: entries and their corresponding activity change, less the hit threshold.
Target: Potassium voltage-gated channel subfamily KQT member 2 (Rattus norvegicus) (UniProt O88943)
Sequence (O88943 whole entry, looked up): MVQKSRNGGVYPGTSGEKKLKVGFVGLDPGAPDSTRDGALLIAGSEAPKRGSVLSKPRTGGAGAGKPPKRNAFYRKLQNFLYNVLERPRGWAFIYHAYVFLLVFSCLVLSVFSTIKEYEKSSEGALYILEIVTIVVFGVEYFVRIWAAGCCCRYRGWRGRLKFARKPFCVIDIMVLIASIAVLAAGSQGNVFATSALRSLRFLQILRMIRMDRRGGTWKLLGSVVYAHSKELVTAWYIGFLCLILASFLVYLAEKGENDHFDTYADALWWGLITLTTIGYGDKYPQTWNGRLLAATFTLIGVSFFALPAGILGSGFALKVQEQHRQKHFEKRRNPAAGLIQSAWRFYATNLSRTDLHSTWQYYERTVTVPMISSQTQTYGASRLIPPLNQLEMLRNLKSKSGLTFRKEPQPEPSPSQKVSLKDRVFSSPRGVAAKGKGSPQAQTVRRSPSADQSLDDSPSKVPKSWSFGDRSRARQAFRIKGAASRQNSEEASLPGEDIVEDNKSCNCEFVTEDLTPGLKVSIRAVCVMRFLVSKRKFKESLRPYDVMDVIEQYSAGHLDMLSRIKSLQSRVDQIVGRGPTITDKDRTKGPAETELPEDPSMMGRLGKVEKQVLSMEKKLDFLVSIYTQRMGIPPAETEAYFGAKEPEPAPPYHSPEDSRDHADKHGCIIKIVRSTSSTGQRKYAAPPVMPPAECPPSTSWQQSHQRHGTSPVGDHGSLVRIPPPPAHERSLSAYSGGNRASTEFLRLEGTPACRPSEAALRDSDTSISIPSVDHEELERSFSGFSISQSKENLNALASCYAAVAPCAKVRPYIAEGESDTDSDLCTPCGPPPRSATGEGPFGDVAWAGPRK
Assay: KCNQ2 potentiation in CHO cells – cell-based, FluxOR thallium flux, counter-screen for hERG block protector project, confirmation (AID 1942);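 note: normalized value minus buffer-control mean plus three SD of buffer wells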
Conditions: FluxOR thallium flux fluorescence, at 10 µM, active compounds read high
About 580 (24%) of roughly 2,400 compounds were called active. A selection follows.
Record the value in %, omitting the unit from your answer.

compound="Cc1ccc(C(=C2C3C=CC2C2C(=O)NC(=O)C32)c2ccc(C)cc2)cc1 (stereo not given)" experimental_value=-17.1
compound="O=C(NC(C(=O)c1ccccc1)n1cnccc1=O)c1ccccc1 (stereo not given)" experimental_value=-8.7

[ask] Request the reported activity change, less the hit threshold associated with Cn1c(=S)[nH]c2sc3c(c2c1=O)CCC(C(C)(C)C)C3 (stereo not given)
[reply] 70.3

[ask] Request the reported activity change, less the hit threshold associated with CCOc1cc(NC(=S)N2CCC(C(N)=O)CC2)c(C(=O)OC)cc1OCC
[reply] -11.5

[ask] Request the reported activity change, less the hit threshold associated with O=C(c1ccccc1)N1CCc2ccccc21
[reply] -14.8

[ask] Request the reported activity change, less the hit threshold associated with COc1ccc2c(C(=O)CN3CCN(c4ccccc4)CC3)c[nH]c2c1
[reply] -21.6

[ask] Request the reported activity change, less the hit threshold associated with O=C(Nn1cnnc1)c1ccncc1
[reply] -10.9

Values were extracted from PubChem BioAssay AID1942.
